targetDesc: GRP94 (Canis lupus, UniProt P41148, DEL287-327)
experimentDescription: co-crystal structure
parameterMeasured: pKd
Formally, pKd is defined as -log10 of the concentration c, with c in mol/L.

[in] Fill blank: measured pKd of the compound COC(=O)c1c(O)cc(O)c(Cl)c1CCC(=O)NC1=CC(=O)C(OC)=CC1=O [Radamide] is ____.
[out] 6.28

Source listed as paper PMC2692672.
